# Test system: EKVX NSCLC
# assay text: NCI tumour cell line growth inhibition, 48 h
I'd appreciate it if you could supply TGI values for the items below.

Param item = N[C@@H]1C[C@H](N)c2c(Cl)sc(Cl)c21 ; retrieve measured TGI.
> 100 µM

I am curious: what TGI value has been reported for CCOC(=O)/C(C#N)=C(O)/C(=C/c1ccccc1Cl)NC(=O)c1ccccc1 ?
> 100 µM

// lookup TGI for COc1ccc(NC=O)c(C(O)CCNC(C)=O)c1 (stereo unspecified)
> 100 µM

Give the measured TGI of COC(=O)c1nc(-c2ccc(Cl)c(Cl)c2)nc2ccccc12 .
> 100 µM

Look up TGI: O=C(O)CCC(=O)Nc1ccc2c(c1)S(=O)(=O)N(CC(=O)O)C2=O
> 100 µM

Which TGI value belongs to Cc1c(C(=O)/C=C/c2ccc(O)cc2)nnn1-c1ccnc2c(C(F)(F)F)cccc12 ?
> 100 µM

Consider the molecule shown here: N#C/C(=C\c1cn(-c2ccccc2)c2ccccc12)C(=O)O What is its recorded TGI?
> 100 µM

Can you share its TGI? I mean this molecule: CCCOc1ccc(/C=C\c2cc(OC)c(OC)c(OC)c2)cc1
> 100 µM

Look up TGI for this molecule: CSc1nc(C)cc(Nc2ccc(O)c(CN3CCCCC3)c2)n1
88.7 µM

Query: TGI; subject: COc1ncnc2c(NC3OC(CO)C(O)C3O)ncnc12 (stereo unspecified)
> 49 µM

Dear colleague, I am looking for the recorded TGI of the following molecule: COc1cc2c(/C=C3/C(=O)Nc4ccccc43)c(Cl)n(Cc3ccccc3)c2cc1C
> 100 µM

Would you mind telling me what TGI value was observed for COc1cc(C)cc2c1OC(c1ccccc1)CC2=O (stereo unspecified) ?
> 100 µM

Item CCCCCCC(N)(CCCCCC)C(=O)Nn1c(C)ccc1C has what recorded TGI?
58.4 µM

Any idea what its TGI is? The molecule is CC[C@@]1(O)C(=O)OCc2c1c(Cl)c1n(c2=O)Cc2cc3ccccc3nc2-1
> 70.5 µM

# TGI lookup, item Cc1ccc(NC(=O)c2ccnc(C(F)(F)F)c2)cc1-c1cc(OCCO)nc(N2CCOCC2)c1
29.5 µM

I have this molecule here, NC(=S)N/N=C/c1cc(CN2CCOCC2)c(N)cn1 , and I need its recorded TGI.
> 100 µM

I'd like to know its TGI. The molecule in question is COc1cc(C2c3cccc4cccc(c34)C3CCC(=O)N32)cc(O)c1O (stereo unspecified)
> 50 µM

Form field: reported TGI of Cc1ccc2c(c1)C(C1Cc3c(C)cccc3C1=O)OC2=O (stereo unspecified)
> 100 µM

Form field: reported TGI of CCCOC(=O)c1cc(C(=CCC[C@H]2CC[C@@]3(C)[C@@H](CC[C@@H]4[C@@H]3CC[C@]3(C)[C@@H](C(C)CCCC(C)C)CC[C@@H]43)C2)c2cc(Cl)c(O)c(C(=O)OCCC)c2)cc(Cl)c1O (stereo partly specified)
> 50 µM

Please look up its TGI: COc1ccc(C2(CN(C)C)COc3cc(OC)c(OC)cc3C2=O)cc1OC (stereo unspecified)
> 100 µM

Look up TGI: COc1cc(N2CCC(N(C)C)CC2)ccc1Nc1ncc(Cl)c(Nc2ccccc2P(C)(C)=O)n1
> 7.38 µM

The measured values listed here are drawn from PubChem BioAssay (NCI).
